Reference source: patent US20260151494A1

# SYSTEM UNDER TEST: T1, apical domain of cynomolgus CD71 (cynomolgus, UniProt A0A2K5X958 189-383)
# T1 construct: domain: apical domain; also called Cyno apical domain
# T1 sequence (A0A2K5X958 entry or part of it): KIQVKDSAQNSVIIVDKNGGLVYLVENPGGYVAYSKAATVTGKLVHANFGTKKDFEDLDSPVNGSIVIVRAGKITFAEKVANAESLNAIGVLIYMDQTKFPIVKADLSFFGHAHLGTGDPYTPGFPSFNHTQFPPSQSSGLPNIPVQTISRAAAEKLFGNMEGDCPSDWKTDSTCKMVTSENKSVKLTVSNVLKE
# ASSAY NOTES: primary ELISA; note: test concentration or dose not given here
ASSAY READOUT: RLU (RLU)

BINDER	ASSAY READOUT	EXPERIMENTAL RESULT
CD71-binding FN3 domain of SEQ ID NO: 216 (designed binder) MSLPAPKNLVVSRVTEDSARLSWTAPDAAFDSFEIAYFEQTYTGEAIVLTVPGSERSYDLTGLKPGTEYWVQIGGVKGGTWSAPLSAISTT	RLU	5.04e+06
CD71-binding FN3 domain of SEQ ID NO: 167 (designed binder) MSLPAPKNLVVSRVTEDSARLSWTAPDAAFDSFFIGYLEPQPPGEAIVLTVPGSERSYDLTGLKPGTEYNVTIQGVKGGFPSVPLSAAFTT	RLU	5.93e+06
CD71-binding FN3 domain of SEQ ID NO: 206 (designed binder) MSLPAPKNLVASRVTEDSARLSWTAPDAAFDSFEIGYFENLYLGEAIVLTVPGSERSYDLTGLKPGTEYWVQIGGVKGGNWSAPLSAIFTT	RLU	5.33e+06
CD71-binding FN3 domain of SEQ ID NO: 119 (designed binder) MSLPAPKNLVVSRVTEDSARLSWTAPDAAFDSFFIGYLEPQPPGEAIELYVPGSERSYDLTGLKPGTEYNVTIQGVKGGFPSDPLVAFFTT	RLU	6.29e+06
